Hello, the source for this data is PubChem BioAssay AID256, in case you need it.

Answer each item with its documented T/C.
# System: CD2F1 mice, L1210 leukemia ip, survival T/C
# Method Description: NCI In Vivo Anticancer Drug Screen. Data for tumor model L1210 Leukemia (intraperitoneal) in CD2F1 (CDF1) mice
# Settings: endpoint: mean survival time; dose: 100.0 mg/kg/injection; schedule: Q04DX003 (ip); vehicle: other; higher = longer survival
Toxic doses and inconclusive results are not listed.

What does the data say about its T/C? Entry: CCN(CC)c1ccc(N=Nc2cc(Cl)ccc2Cl)c(NC(=O)CSC(C)=O)c1
94 % of control

What do you have for CCCCCCC(O)CCCCCC ?
100 % of control

What do you have for S=P(c1ccccc1)(N1CC1)N1CC1 ?
108 % of control

What do you have for FC(F)(F)C1(C(F)(F)F)C/C(=N/Nc2ccccc2)CO1 ?
101 % of control

What do you have for CCCCCCCCCCCCCC[N+]1(C)CCC[N+](C)(CCCCCCCCCCCCCC)CC1 (configuration not stated) ?
103 % of control

What do you have for O=C(O)/C=N/NS(=O)(=O)Cc1ccccc1 ?
117 % of control

What do you have for CCCCCCCC(=O)NC1CCC(C(C)(C)C)CC1 (configuration not stated) ?
93 % of control
